FYI, the data here is from patent US11292821B2.

- Tested on: HLA-B*44
- PROTOCOL DESCRIPTION: MHC binding assay (UV-ligand exchange, β2m ELISA)
- Design: species or system human
- RUN CONDITIONS: UV-ligand exchange, β2m ELISA
VALUE TYPE: Peptide exchange (peptide exchange yield, MHC class I binding score)

// known answers, use as guide
| SUBSTANCE | OBS VALUE |
| --- | --- |
| 352 (NEVLTYIKF; listed as Homo sapiens) [compound 352] | “++++” (>75% = ++++) |
| 355 (SDMVRFHLF; listed as Homo sapiens) [compound 355] | “++” (>20% = ++) |
| 361 (SENLFFASF; listed as Homo sapiens) [compound 361] | “++++” (>75% = ++++) |
| 343 (TEFTTVLY; listed as Homo sapiens) [compound 343] | “++” (>20% = ++) |
| 345 (IEFIHPQAF; listed as Homo sapiens) [compound 345] | “++++” (>75% = ++++) |
| 366 (AENLFRAF; listed as Homo sapiens) [compound 366] | “++” (>20% = ++) |

Q: Look up Peptide exchange (peptide exchange yield, MHC class I binding score) for this substance: 335 (KELEATKQY; listed as Homo sapiens) [compound 335]
A: “++” (>20% = ++)

Q: So what's the measured Peptide exchange (peptide exchange yield, MHC class I binding score) for this one? 358 (KEADIHFLI; listed as Homo sapiens) [compound 358]
A: “++++” (>75% = ++++)
